# System: Plasmodium falciparum
# assayRemarks: GSK_TCMDC: Inhibition of Plasmodium falciparum Dd2 in whole red blood cells, using parasite LDH activity as an index of growth. Test compounds present at 2uM
# Assay type: functional
The label depends only on Inhibition: yes if it is at least 40%, no if it is smaller.

State whether the measured Inhibition reaches 40%, counting equality as reaching it, for CC1=C(C(=O)Nc2cc3cn[nH]c3cc2F)C(c2cccc(O)c2F)CC(=O)N1 (configuration not stated)
yes

Now give it for N=C(NCc1ccc(O)cc1)Nc1nc(-c2ccc(OCCCn3ccnc3)cc2)cs1 too.
yes

Now give it for Cc1[nH]c(C)c(-c2ccc(OCCn3cnc(Cl)c3Cl)cc2)c(=O)c1Br too.
no

Now give it for CN(CCN)Cc1ccc(-c2ccc(-c3nc4cc(F)ccc4[nH]3)s2)cc1.O=C(O)C(F)(F)F too.
yes

Now give it for CN(c1ccc(NC(=O)c2cccc(F)c2)cc1)C1CCCN(Cc2cccc(O)c2)C1.O=C(O)C(F)(F)F (configuration not stated) too.
no

Now give it for CN1Cc2ccc(NS(=O)(=O)c3ccc(-c4ccoc4)cc3)cc2C1.Cl too.
no

Now give it for CS(=O)(=O)N1CC2(CCN(CCC(NC(=O)NCc3ccccc3Cl)c3ccc(Cl)c(Cl)c3)CC2)c2ccccc21 (configuration not stated) too.
yes

Now give it for CN1CCN(CCCN(C(=O)Nc2cc(C(F)(F)F)cc(C(F)(F)F)c2)c2ccccc2Cc2ccccc2)CC1 too.
yes

Now give it for Cc1cc(C)c(C)c(S(=O)(=O)N2CCCCC(c3ccc(F)c(F)c3)=N2)c1C too.
yes

Now give it for CCCC(=O)NC(c1ccc(C)cc1)c1ccc2cccnc2c1O (configuration not stated) too.
yes

Now give it for O=C(c1cncc(-c2ccccc2)c1)N(Cc1cncn1Cc1ccccc1F)CC1CC1 too.
no

Values from ChEMBL document CHEMBL1157539
